The following compounds have recorded AC50 on UniProtKB Q01959.
Sequence (Q01959 whole entry): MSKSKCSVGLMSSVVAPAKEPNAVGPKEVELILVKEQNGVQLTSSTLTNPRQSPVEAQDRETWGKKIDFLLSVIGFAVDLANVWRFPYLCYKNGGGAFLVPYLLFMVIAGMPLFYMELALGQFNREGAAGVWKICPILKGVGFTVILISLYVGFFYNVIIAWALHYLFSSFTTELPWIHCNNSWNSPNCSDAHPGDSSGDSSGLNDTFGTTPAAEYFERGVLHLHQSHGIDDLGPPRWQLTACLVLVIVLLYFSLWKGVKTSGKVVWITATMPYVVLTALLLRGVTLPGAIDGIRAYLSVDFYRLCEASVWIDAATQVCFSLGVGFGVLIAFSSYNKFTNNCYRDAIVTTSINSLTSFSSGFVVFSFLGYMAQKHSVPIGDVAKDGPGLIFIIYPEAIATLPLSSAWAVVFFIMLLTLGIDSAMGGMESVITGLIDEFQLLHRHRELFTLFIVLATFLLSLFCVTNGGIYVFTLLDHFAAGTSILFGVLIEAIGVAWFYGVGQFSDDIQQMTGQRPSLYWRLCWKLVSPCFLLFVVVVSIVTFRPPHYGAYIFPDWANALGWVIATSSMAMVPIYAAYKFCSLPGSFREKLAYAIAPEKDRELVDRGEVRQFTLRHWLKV

Answered examples (6):
compound: Oc1ccccc1 [PHENOL]
result: > 30 µM
--
compound: Cc1cccc(Nc2ccccc2C(=O)O)c1C [MEFENAMIC ACID]
result: > 30 µM
--
compound: Nc1nc2nc[nH]c2c(=S)[nH]1 [THIOGUANINE]
result: > 30 µM
--
compound: CC(=O)OCC(=O)[C@@]1(O)CC[C@H]2[C@@H]3CCC4=CC(=O)C=C[C@]4(C)[C@@]3(Cl)[C@@H](Cl)C[C@@]21C [DICHLORISONE ACETATE]
result: > 30 µM
--
compound: COc1ccccc1N1CCN(CC(O)COc2cccc3ccccc23)CC1 (stereo not drawn) [NAFTOPIDIL]
result: 4.46 µM
--
compound: COc1cc([C@@H]2c3cc4c(cc3[C@H](O)[C@H]3COC(=O)[C@H]23)OCO4)cc(OC)c1OC [PODOFILOX]
result: > 30 µM

Consider the compound shown here: CC(=O)Oc1c(C)c(C)c2c(c1C)CC[C@@](C)(CCC[C@H](C)CCC[C@H](C)CCCC(C)C)O2 What is its recorded AC50?
> 30 µM

Likewise for CCC(C)(C)c1ccc(CC(C)CN2C[C@@H](C)O[C@@H](C)C2)cc1 (stereo partly drawn) [AMOROLFINE] ?
> 30 µM

// same read-out, input: C=CCN1C[C@H](C(=O)N(CCCN(C)C)C(=O)NCC)C[C@@H]2c3cccc4[nH]cc(c34)C[C@H]21 [CABERGOLINE]
4.64 µM

Ok, now O=C(O)c1cc(O)ccc1O [GENTISIC ACID]
> 30 µM
